# Target Or System: JAK2 (Homo sapiens, UniProt O60674)
# Construct: made in house; host or cells: SF9 insect cells (baculovirus)
# Sequence (O60674 812-1132): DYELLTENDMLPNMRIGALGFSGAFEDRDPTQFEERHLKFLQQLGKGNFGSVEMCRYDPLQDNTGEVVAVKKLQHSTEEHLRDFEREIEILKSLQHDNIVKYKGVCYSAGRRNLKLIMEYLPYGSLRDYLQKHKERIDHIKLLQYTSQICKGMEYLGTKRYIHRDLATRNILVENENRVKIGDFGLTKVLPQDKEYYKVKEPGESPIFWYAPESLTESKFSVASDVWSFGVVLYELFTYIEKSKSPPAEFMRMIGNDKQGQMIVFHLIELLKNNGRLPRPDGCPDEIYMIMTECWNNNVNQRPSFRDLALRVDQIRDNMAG
# Experiment: JAK2 inhibition (Table 4)
# Type: biochemical
# Assay Setup: read-out: JAK2 Ki
pKi: −log10 of the molar value.
Each entry gets Not met if its pKi stays under 7, and Met if its pKi is 7 or above.

>>> group("OC[C@]1(O)CC[C@@H](n2nnc3cnc4[nH]ccc4c32)CC1 [Example 716]")
"Met"
>>> group("N#CCCN1CC[C@@H](n2cnc3cnc4[nH]ccc4c32)C1 [Example 187]")
"Met"
>>> group("CC1(n2cnc3cnc4[nH]ccc4c32)CCNCC1 [Example 318]")
"Not met"

###

# Target Or System: JAK2 (Homo sapiens)
# Construct: made in house; host or cells: SF9 insect cells (baculovirus)
# Experiment: JAK2 inhibition (Table 4)
# Format: biochemical
# Assay Setup: read-out: JAK2 Ki
pKi: −log10 of the molar value.
pKi values for the compounds below.
Reported Endpoint: pKi

>>> observed_measurement("N#CCCN1CCC(n2c(COCC3CCC3)nc3cnc4[nH]ccc4c32)CC1")
6.99
>>> observed_measurement("CCN1CC[C@@H](n2c(CCNS(=O)(=O)C3CC3)nc3cnc4[nH]ccc4c32)[C@@H](F)C1")
7.33
>>> observed_measurement("OC[C@]1(O)CC[C@H](n2nnc3cnc4[nH]ccc4c32)CC1")
7.77
>>> observed_measurement("O=C(CC1CC1)N1CCC[C@@H](n2cnc3cnc4[nH]ccc4c32)C1")
8.13
>>> observed_measurement("CC(C)(O)[C@H]1CC[C@@H](n2cnc3cnc4[nH]ccc4c32)CC1")
7.22
>>> observed_measurement("N#CCCN1CCC(n2c(CNS(=O)(=O)C3CC3)nc3cnc4[nH]ccc4c32)CC1")
7.38
>>> observed_measurement("O=C(CO)N1CCC(n2cnc3cnc4[nH]ccc4c32)CC1")
7.95
>>> observed_measurement("CC(=O)NCc1nc2cnc3[nH]ccc3c2n1C1CCNCC1")
5.73
>>> observed_measurement("O=C1CCCN1c1ccc(S(=O)(=O)N2CCC(n3cnc4cnc5[nH]ccc5c43)CC2)cc1")
7.41
>>> observed_measurement("Cc1nc2cnc3[nH]ccc3c2n1C1CCC(F)(F)CC1")
7.54
>>> observed_measurement("CC1CC(n2cnc3cnc4[nH]ccc4c32)CCN1Cc1ccccc1 (racemic) [Example 127]")
8.74
>>> observed_measurement("O=C(Cc1nc2cnc3[nH]ccc3c2n1C1CCCOC1)NCCn1ccnc1 (racemic)")
6.69
>>> observed_measurement("c1cc(N2CCC[C@@H](n3cnc4cnc5[nH]ccc5c43)C2)ccn1")
6.05
>>> observed_measurement("O=C(N[C@H]1CC[C@H](n2cnc3cnc4[nH]ccc4c32)CC1)OCC1CC1")
7.76
>>> observed_measurement("N#CCCN1CCC(n2c(Cc3ccc(C(N)=O)cc3)nc3cnc4[nH]ccc4c32)CC1")
6.69

###

# Target Or System: JAK1 (Homo sapiens, UniProt P23458)
# Construct: made in house; host or cells: SF9 insect cells (baculovirus)
# Sequence (P23458 852-1154): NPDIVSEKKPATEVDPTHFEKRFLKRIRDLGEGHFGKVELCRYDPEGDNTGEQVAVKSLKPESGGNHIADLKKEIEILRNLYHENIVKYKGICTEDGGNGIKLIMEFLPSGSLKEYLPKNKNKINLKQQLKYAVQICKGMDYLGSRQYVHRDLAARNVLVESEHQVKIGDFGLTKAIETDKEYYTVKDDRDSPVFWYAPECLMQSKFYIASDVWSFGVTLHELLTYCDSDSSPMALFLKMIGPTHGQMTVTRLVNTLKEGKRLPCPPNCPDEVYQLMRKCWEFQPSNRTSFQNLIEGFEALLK
# Experiment: JAK1 inhibition (Table 4)
# Assay type: biochemical
# Assay Setup: read-out: JAK1 Ki
Ki values for the compounds below.
Reported Endpoint: Ki (nM)

>>> observed_measurement("Cc1nc2cnc3[nH]ccc3c2n1[C@H]1CC[C@@H](NCCC#N)C1")
6.22
>>> observed_measurement("CCCC1(n2c(C)nc3cnc4[nH]ccc4c32)CC1")
9.88
>>> observed_measurement("CCC(C)S(=O)(=O)NCc1nc2cnc3[nH]ccc3c2n1C1CCN(CCC#N)CC1 (racemic)")
15.2
>>> observed_measurement("O[C@H]1CC[C@@H](n2cnc3cnc4[nH]ccc4c32)C1")
6.03
>>> observed_measurement("CS(=O)(=O)CC(=O)N1CCC[C@@H](n2cnc3cnc4[nH]ccc4c32)C1")
15.7

###

# Target Or System: JAK3 (Homo sapiens, UniProt P52333)
# Construct: made in house; host or cells: SF9 insect cells (baculovirus)
# Sequence (P52333 783-1124): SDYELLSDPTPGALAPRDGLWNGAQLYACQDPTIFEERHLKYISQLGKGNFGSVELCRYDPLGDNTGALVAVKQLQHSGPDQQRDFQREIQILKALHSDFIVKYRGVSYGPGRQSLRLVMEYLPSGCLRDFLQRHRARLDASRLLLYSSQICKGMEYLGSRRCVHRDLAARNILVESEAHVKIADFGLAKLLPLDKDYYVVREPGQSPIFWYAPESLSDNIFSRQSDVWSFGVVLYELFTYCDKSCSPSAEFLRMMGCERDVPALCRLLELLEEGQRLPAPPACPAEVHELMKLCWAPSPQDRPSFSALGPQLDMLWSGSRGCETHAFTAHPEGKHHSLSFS
# Experiment: JAK3 inhibition (Table 4)
# Format: biochemical
# Assay Setup: read-out: JAK3 Ki
pKi: −log10 of the molar value.
Each entry gets Criterion not met if its pKi stays under 7, and Criterion met if its pKi is 7 or above.

>>> group("CC(C)(C)COCc1nc2cnc3[nH]ccc3c2n1C1CCN(CCC#N)CC1 [Example 683]")
"Criterion not met"
>>> group("Cc1nc2cnc3[nH]ccc3c2n1C1CC1 [Example 425]")
"Criterion not met"
>>> group("O=C(Cc1nc2cnc3[nH]ccc3c2n1C1CCCOC1)N1CCCOCC1 (racemic) [Example 980]")
"Criterion not met"
>>> group("c1cnc(CN2CCC(n3cnc4cnc5[nH]ccc5c43)CC2)cn1 [Example 92]")
"Criterion met"
>>> group("COCC(=O)NC1CCCC(n2cnc3cnc4[nH]ccc4c32)C1 (single isomer, unassigned) [Example 481]")
"Criterion not met"
>>> group("COC(=O)NC1CCC(n2cnc3cnc4[nH]ccc4c32)C1 (racemic) [Example 734]")
"Criterion met"
>>> group("O=C(c1cccnc1)N1CCC[C@@H](n2cnc3cnc4[nH]ccc4c32)C1 [Example 31]")
"Criterion not met"
>>> group("OC1CCCC(n2cnc3cnc4[nH]ccc4c32)C1 (single isomer, unassigned) [Example 559]")
"Criterion met"
>>> group("Cc1nc2cnc3[nH]ccc3c2n1C1CCOC(C)(C)C1 (stereo not drawn) [Example 178]")
"Criterion met"
>>> group("Cc1nc2cnc3[nH]ccc3c2n1[C@H]1CC[C@H](NC(=O)N(C)C)CC1 [Example 604]")
"Criterion not met"

###

# Target Or System: JAK2 (Homo sapiens, UniProt O60674)
# Construct: made in house; host or cells: SF9 insect cells (baculovirus)
# Experiment: JAK2 inhibition (Table 4)
# Assay type: biochemical
# Assay Setup: read-out: JAK2 Ki
Ki values for the molecules below.
Reported Endpoint: Ki (nM)

>>> observed_measurement("C[C@@H](O)c1nc2cnc3[nH]ccc3c2n1[C@@H]1CCCO1")
395
>>> observed_measurement("CC(O)c1nc2cnc3[nH]ccc3c2n1C1CCN(S(C)(=O)=O)CC1 (racemic)")
200
>>> observed_measurement("CN1CCC[C@H]1C(=O)N1CCC(n2cnc3cnc4[nH]ccc4c32)CC1")
137
>>> observed_measurement("CCOC(=O)NCCc1nc2cnc3[nH]ccc3c2n1C1CCN(CC)CC1(F)F (single isomer, unassigned) [Example 680]")
56.3
>>> observed_measurement("CC(O)c1nc2cnc3[nH]ccc3c2n1C1CC2CCC1O2 (single isomer, unassigned) [Example 847]")
530
>>> observed_measurement("CC(C)(C)OC(=O)NC1CC(n2cnc3cnc4[nH]ccc4c32)C1 (centres unmarked)")
5.78
>>> observed_measurement("Cn1ccnc1CN1CCC[C@@H](n2cnc3cnc4[nH]ccc4c32)C1")
121
>>> observed_measurement("CC(C)OCCOCc1nc2cnc3[nH]ccc3c2n1C1CCN(CCC#N)CC1")
80.8
>>> observed_measurement("OCc1nc2cnc3[nH]ccc3c2n1C1CCN(Cc2ccccc2)CC1(F)F (racemic)")
1.29
>>> observed_measurement("N#CC[C@H]1CC[C@H](n2c(CO)nc3cnc4[nH]ccc4c32)CC1")
0.39
>>> observed_measurement("Cc1nc2cnc3[nH]ccc3c2n1C1CCC(N2CCC(C#N)CC2)CC1 (centres unmarked)")
6.47
>>> observed_measurement("COC1CNCCC1n1cnc2cnc3[nH]ccc3c21 (racemic)")
33.8
>>> observed_measurement("CS(=O)(=O)NCc1nc2cnc3[nH]ccc3c2n1C1CC2CCC1O2 (centres unmarked) [Example 925]")
252
>>> observed_measurement("COC(=O)N[C@@H]1CC[C@@H](n2c(C)nc3cnc4[nH]ccc4c32)C1")
5.67
>>> observed_measurement("Cc1nc2cnc3[nH]ccc3c2n1C1(C)CCN(Cc2ccnc(C#N)c2)CC1")
205
>>> observed_measurement("O=C(N[C@H]1CC[C@H](n2cnc3cnc4[nH]ccc4c32)CC1)OC1CCCC1")
14.5
>>> observed_measurement("FCCN1CCC(n2cnc3cnc4[nH]ccc4c32)CC1")
3.21
>>> observed_measurement("CC(C)(C)OC(=O)N1CC(n2cnc3cnc4[nH]ccc4c32)C1")
191
>>> observed_measurement("C[C@@H](O)c1nc2cnc3[nH]ccc3c2n1[C@@H]1CCN(S(C)(=O)=O)C1")
27
>>> observed_measurement("COCCN1CCC(n2c(C(C)O)nc3cnc4[nH]ccc4c32)CC1 (racemic)")
194
>>> observed_measurement("CS(=O)(=O)CCN1CCC(n2cnc3cnc4[nH]ccc4c32)CC1")
6.01
>>> observed_measurement("NC1CC(n2cnc3cnc4[nH]ccc4c32)C1 (centres unmarked)")
181
>>> observed_measurement("O=S(=O)(c1cccnc1)N1CCC(n2cnc3cnc4[nH]ccc4c32)CC1")
10.6
>>> observed_measurement("CC(CC#N)N1CCC(n2c(C3CCOC3)nc3cnc4[nH]ccc4c32)CC1 (racemic)")
27.1
>>> observed_measurement("N#CCCN1CCC(n2c(CNC(=O)C3CC3)nc3cnc4[nH]ccc4c32)CC1")
58.7
>>> observed_measurement("CN(CC(F)F)C(=O)NC1CCC(n2cnc3cnc4[nH]ccc4c32)CC1 (centres unmarked)")
11.7
>>> observed_measurement("CC(O)c1nc2cnc3[nH]ccc3c2n1C1CCNCC1 (racemic)")
854
>>> observed_measurement("O=C(Cc1nc2cnc3[nH]ccc3c2n1C1CCNCC1)N1CC(F)(F)C1")
1310
>>> observed_measurement("CS(=O)(=O)NCc1nc2cnc3[nH]ccc3c2n1C1CCN(Cc2ccccc2)CC1")
44.6
